The measurements presented in this section are drawn from PubChem BioAssay AID2060489.

Test system: 922993-354-T-J3-PDC complex spheroids, viability
Assay: Anticancer human tumor 922993-354-T-J3-PDC patient-derived endometrial carcinoma cell line growth inhibition [GQUAD]
Settings: second compound 10 µM; first compound 1 µM; hits give low values
MEASUREMENT TYPE: viability, T/C (%)
A number alone suffices; assume %.

Illustrative cases are given below, each with its answer.
MOLECULE: O=C(NO)c1cnc(N2CCN(S(=O)(=O)c3ccc4ccccc4c3)CC2)nc1 + CN(C)c1ccc(Nc2c3ccc(NC(=O)CCN4CCCC4)cc3nc3cc(NC(=O)CCN4CCCC4)ccc23)cc1
SYSTEM UNDER TEST: 922993-354-T-J3-PDC complex spheroids, viability
OBS VALUE: 29
--
MOLECULE: CC1COCCN1c1cc(-c2ccnn2C)c2ccnc(-c3ccn[nH]3)c2n1 (stereo unspecified) + CN(C)c1ccc(Nc2c3ccc(NC(=O)CCN4CCCC4)cc3nc3cc(NC(=O)CCN4CCCC4)ccc23)cc1
SYSTEM UNDER TEST: 922993-354-T-J3-PDC complex spheroids, viability
OBS VALUE: 25.6
--
MOLECULE: Nc1ccn(C2OC(CO)C(O)C2(F)F)c(=O)n1 (stereo unspecified) + CN(C)c1ccc(Nc2c3ccc(NC(=O)CCN4CCCC4)cc3nc3cc(NC(=O)CCN4CCCC4)ccc23)cc1
SYSTEM UNDER TEST: 922993-354-T-J3-PDC complex spheroids, viability
OBS VALUE: 14.4
--
MOLECULE: CC(C)(O)C1CCC(Nc2ccc3ncc(-c4cccc(C(F)(F)F)c4)n3n2)CC1 (stereo unspecified) + Cc1[nH]c2ccc(F)cc2c1-c1nc2c3cccnc3c3ncccc3c2[nH]1
SYSTEM UNDER TEST: 922993-354-T-J3-PDC complex spheroids, viability
OBS VALUE: 99.8
--
MOLECULE: O=C(NO)c1cnc(N2CCN(S(=O)(=O)c3ccc4ccccc4c3)CC2)nc1 + Cc1cnc(CNC(=O)c2c(=O)c3ccc(N4CCCN(C)CC4)nc3n3c2sc2ccccc23)cn1
SYSTEM UNDER TEST: 922993-354-T-J3-PDC complex spheroids, viability
OBS VALUE: 0.2
--
MOLECULE: Cc1cccc(N(C)C(=O)C2C(O)CCN2c2nc(C)cc(C(F)(F)F)c2C#N)c1 (stereo unspecified) + Cc1[nH]c2ccc(F)cc2c1-c1nc2c3cccnc3c3ncccc3c2[nH]1
SYSTEM UNDER TEST: 922993-354-T-J3-PDC complex spheroids, viability
OBS VALUE: 111
--
MOLECULE: CC(C)(O)C1CCC(Nc2ccc3ncc(-c4cccc(C(F)(F)F)c4)n3n2)CC1 (stereo unspecified) + Cc1cnc(CNC(=O)c2c(=O)c3ccc(N4CCCN(C)CC4)nc3n3c2sc2ccccc23)cn1
SYSTEM UNDER TEST: 922993-354-T-J3-PDC complex spheroids, viability;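 further: spheroids exposed to compounds for seven days; 100% = DMSO vehicle control viability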
OBS VALUE: 18.5
--
MOLECULE: C=CCn1c(=O)c2cnc(Nc3ccc(N4CCN(C)CC4)cc3)nc2n1-c1cccc(C(C)(C)O)n1 + CN(C)c1ccc(Nc2c3ccc(NC(=O)CCN4CCCC4)cc3nc3cc(NC(=O)CCN4CCCC4)ccc23)cc1
SYSTEM UNDER TEST: 922993-354-T-J3-PDC complex spheroids, viability;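 further: spheroids exposed to compounds for seven days; 100% = DMSO vehicle control viability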
OBS VALUE: 110
--
MOLECULE: Nc1ccn(C2OC(CO)C(O)C2(F)F)c(=O)n1 (stereo unspecified) + Cc1cnc(CNC(=O)c2c(=O)c3ccc(N4CCCN(C)CC4)nc3n3c2sc2ccccc23)cn1
SYSTEM UNDER TEST: 922993-354-T-J3-PDC complex spheroids, viability;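 further: spheroids exposed to compounds for seven days; 100% = DMSO vehicle control viability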
OBS VALUE: 41.2
--
MOLECULE: CC(=O)O[C@H]1C(=O)[C@@]2(C)[C@H]([C@H](OC(=O)c3ccccc3)[C@]3(O)C[C@H](OC(=O)[C@H](O)[C@@H](NC(=O)c4ccccc4)c4ccccc4)C(C)=C1C3(C)C)[C@]1(OC(C)=O)CO[C@@H]1C[C@@H]2O + Cc1cnc(CNC(=O)c2c(=O)c3ccc(N4CCCN(C)CC4)nc3n3c2sc2ccccc23)cn1
SYSTEM UNDER TEST: 922993-354-T-J3-PDC complex spheroids, viability;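 further: spheroids exposed to compounds for seven days; 100% = DMSO vehicle control viability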
OBS VALUE: 40.2

# return recorded viability, T/C for entry COc1ccc([C@@H](O)c2cc(-c3ncnc4cc(N5CCOCC5)ccc34)c(F)cc2Cl)nn1 + Cc1[nH]c2ccc(F)cc2c1-c1nc2c3cccnc3c3ncccc3c2[nH]1
90.8

# return recorded viability, T/C for entry C#Cc1c(F)ccc2cc(O)cc(-c3ncc4c(N5CC6CCC(C5)N6)nc(OCC56CCCN5CC(F)C6)nc4c3F)c12 (stereo unspecified) + Cc1cnc(CNC(=O)c2c(=O)c3ccc(N4CCCN(C)CC4)nc3n3c2sc2ccccc23)cn1
44.8

# return recorded viability, T/C for entry O=c1[nH]cc(F)c(=O)[nH]1 + Cc1cnc(CNC(=O)c2c(=O)c3ccc(N4CCCN(C)CC4)nc3n3c2sc2ccccc23)cn1
37.2

# return recorded viability, T/C for entry COc1cccc2c1C(=O)c1c(O)c3c(c(O)c1C2=O)CC(O)(C(=O)CO)CC3OC1CC(N)C(O)C(C)O1 (stereo unspecified) + Cc1cnc(CNC(=O)c2c(=O)c3ccc(N4CCCN(C)CC4)nc3n3c2sc2ccccc23)cn1
50.5

# return recorded viability, T/C for entry C=CCn1c(=O)c2cnc(Nc3ccc(N4CCN(C)CC4)cc3)nc2n1-c1cccc(C(C)(C)O)n1 + Cc1[nH]c2ccc(F)cc2c1-c1nc2c3cccnc3c3ncccc3c2[nH]1
98.2

# return recorded viability, T/C for entry COc1ncnc(C2CC2)c1-c1ncc2cnn(Cc3ccc(-c4nc(C(F)(F)F)cn4C(C)C)cc3)c2n1 + Cc1[nH]c2ccc(F)cc2c1-c1nc2c3cccnc3c3ncccc3c2[nH]1
92.3

# return recorded viability, T/C for entry COc1cc(C2c3cc4c(cc3C(OC3OC5COC(C)OC5C(O)C3O)C3COC(=O)C23)OCO4)cc(OC)c1O (stereo unspecified) + Cc1cnc(CNC(=O)c2c(=O)c3ccc(N4CCCN(C)CC4)nc3n3c2sc2ccccc23)cn1
38.2

# return recorded viability, T/C for entry O=C(c1cc(Cc2n[nH]c(=O)c3ccccc23)ccc1F)N1CCN(C(=O)C2CC2)CC1 + CN(C)c1ccc(Nc2c3ccc(NC(=O)CCN4CCCC4)cc3nc3cc(NC(=O)CCN4CCCC4)ccc23)cc1
99.4

# return recorded viability, T/C for entry C#Cc1c(F)ccc2cc(O)cc(-c3ncc4c(N5CC6CCC(C5)N6)nc(OCC56CCCN5CC(F)C6)nc4c3F)c12 (stereo unspecified) + CN(C)c1ccc(Nc2c3ccc(NC(=O)CCN4CCCC4)cc3nc3cc(NC(=O)CCN4CCCC4)ccc23)cc1
133

# return recorded viability, T/C for entry Nc1ccn(C2OC(CO)C(O)C2(F)F)c(=O)n1 (stereo unspecified) + Cc1[nH]c2ccc(F)cc2c1-c1nc2c3cccnc3c3ncccc3c2[nH]1
23.4

# return recorded viability, T/C for entry C=CC(=O)N1CCN(c2nc(=O)n(-c3c(C)ccnc3C(C)C)c3nc(-c4c(O)cccc4F)c(F)cc23)C(C)C1 (stereo unspecified) + Cc1cnc(CNC(=O)c2c(=O)c3ccc(N4CCCN(C)CC4)nc3n3c2sc2ccccc23)cn1
46
